# procedure-summary: Cytotoxicity against mouse B16F10 cells assessed as cell viability at 40 uM after 48 hrs by MTT assay
# Assay type: cell-based, B16-F10
# recorded-conditions: read-out: Activity
test-readout: viability at 48 h, 40 µM (%)
One number for each entry, in %.

Quickly give me recorded viability at 48 h, 40 µM for Oc1ccc(-c2nc3cc4c(cc3s2)CCC4)c(O)c1
88.4

----------
# procedure-summary: Cytotoxicity against mouse B16F10 cells assessed as cell viability at 10 uM after 48 hrs by MTT assay
# Format: cell-based, B16-F10
# recorded-conditions: read-out: Activity
test-readout: viability at 48 h, 10 µM (%)
Give bare numbers, in %.

Tell me its viability at 48 h, 10 µM given Oc1ccc(-c2nc3cc4c(cc3s2)CCC4)c(O)c1 as the entry.
98.1
